Target: DTX1; note: reference of the scale not given here
Experiment: pooled miR-30 sensor sort-seq; sequence = guide strand
Conditions: shRNA
observation_type: sensor-assay potency score (higher = more potent)
Just the number.

Problem: Give the observed sensor-assay potency score (higher = more potent) of TAGATGAGGTAGCAGAAGCCTA for DTX1.
Solution: -1.12

Problem: For DTX1, give the measured sensor-assay potency score (higher = more potent) of the entry TATCTTCGAACCACATCCTCGG
Solution: 0.116

Problem: Report sensor-assay potency score (higher = more potent) under test system DTX1 for TGCTTCTTCTTGGTCTTGCGGC . Note: reference of the scale not given here.
Solution: -0.99

Problem: // output sensor-assay potency score (higher = more potent); input TTCACCTTCTGCATGTATCTTC ; system DTX1; note: reference of the scale not given here
Solution: 0.43

Problem: Given TGAGGTTGGATCCAAACTCGGT , report its sensor-assay potency score (higher = more potent) on DTX1.
Solution: -0.565

Problem: Report sensor-assay potency score (higher = more potent) on DTX1 for this entry: TTTAAGGTGCTTCTTCTTGGTC
Solution: -0.486

Problem: Write down measured sensor-assay potency score (higher = more potent) (DTX1) for this sequence. TTTGTAGAACTGCTCAGTCATC
Solution: -1.13

Problem: State, for DTX1, measured sensor-assay potency score (higher = more potent) of the sequence listed here: TCTTCGAACCACATCCTCGGGA
Solution: -0.159

Problem: Output reported sensor-assay potency score (higher = more potent) of the sequence TATTTCTCCACCCACAGTGGGA on DTX1.
Solution: -0.561

Problem: Look up and report measured sensor-assay potency score (higher = more potent) (DTX1) for the following sequence: TTGACCAGCAGGCACTGCTGGC
Solution: -1.17

Problem: Report the value of sensor-assay potency score (higher = more potent) obtained on DTX1 for TTGGTCTTGCGGCACACCCCGG .
Solution: -0.985

Problem: Write sensor-assay potency score (higher = more potent) of TTGTTGGGTAGATAGCAGTGGC ; system used: DTX1; note: reference of the scale not given here
Solution: -0.92

Problem: Param request: sensor-assay potency score (higher = more potent) | system DTX1 | item TAGAACTGCTCAGTCATCTGGG; note: reference of the scale not given here
Solution: 0.451

Problem: Identify measured sensor-assay potency score (higher = more potent) obtained with DTX1 for TTGAAGTAGATGAGGTAGCAGA .
Solution: -0.853

Problem: System DTX1. Read-out sensor-assay potency score (higher = more potent). Item TTCTTTTGTAGAACTGCTCAGT . Report value. Note: reference of the scale not given here.
Solution: -0.299
